# key: entry, value: Kd
target: T1, human PD-1 (construct not stated) (human, UniProt Q15116 25-167, limits assumed); assay: Biacore (summary table; unit from Table 7)
T1 construct: also called PD-1 analyte
T1 sequence (Q15116 25-167 limits assumed): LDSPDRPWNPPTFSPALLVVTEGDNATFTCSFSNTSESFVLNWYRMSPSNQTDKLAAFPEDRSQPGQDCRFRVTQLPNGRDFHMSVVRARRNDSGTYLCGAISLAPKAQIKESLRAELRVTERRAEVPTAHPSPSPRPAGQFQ

BINDER | Kd (nM)
14A6 murine anti-PD-1 antibody (antibody, V domains shown, Purified hybridoma antibody; also called 14A6-mIgG1) VH: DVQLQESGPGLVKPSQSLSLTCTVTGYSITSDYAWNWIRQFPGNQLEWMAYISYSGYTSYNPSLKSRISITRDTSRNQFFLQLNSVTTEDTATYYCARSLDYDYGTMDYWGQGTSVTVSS VL: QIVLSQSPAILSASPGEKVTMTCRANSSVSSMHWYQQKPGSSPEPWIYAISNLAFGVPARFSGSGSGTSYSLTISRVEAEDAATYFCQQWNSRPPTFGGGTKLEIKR | 0.03
7D3 murine anti-PD-1 antibody (antibody, V domains shown, Purified hybridoma antibody; also called 7D3-mIgG1) VH: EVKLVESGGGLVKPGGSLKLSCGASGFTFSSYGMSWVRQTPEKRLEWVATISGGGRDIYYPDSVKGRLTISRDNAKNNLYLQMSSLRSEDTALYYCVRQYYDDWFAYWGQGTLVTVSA VL: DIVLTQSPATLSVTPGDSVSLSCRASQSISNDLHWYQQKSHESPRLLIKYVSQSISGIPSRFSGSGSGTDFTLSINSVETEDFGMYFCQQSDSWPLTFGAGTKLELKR | 0.0249
13F1 murine anti-PD-1 antibody (antibody, V domains shown, Purified hybridoma antibody; also called 13F1-mIgG1) VH: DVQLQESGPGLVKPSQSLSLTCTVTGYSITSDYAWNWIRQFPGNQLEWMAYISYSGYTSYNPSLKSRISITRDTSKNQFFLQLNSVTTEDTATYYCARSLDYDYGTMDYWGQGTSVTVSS VL: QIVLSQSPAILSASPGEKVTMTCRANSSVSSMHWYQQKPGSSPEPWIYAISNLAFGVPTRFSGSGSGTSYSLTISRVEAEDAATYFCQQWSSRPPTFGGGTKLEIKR | 0.0278
5A8 murine anti-PD-1 antibody (antibody, V domains shown, Purified hybridoma antibody; also called 5A8-mIgG1) VH: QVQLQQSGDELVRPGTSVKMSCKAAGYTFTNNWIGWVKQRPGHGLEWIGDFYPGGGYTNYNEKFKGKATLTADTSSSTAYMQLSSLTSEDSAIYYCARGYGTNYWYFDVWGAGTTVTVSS VL: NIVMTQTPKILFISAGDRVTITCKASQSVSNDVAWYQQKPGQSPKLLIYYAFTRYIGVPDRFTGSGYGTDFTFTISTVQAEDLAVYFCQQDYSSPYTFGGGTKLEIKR | 0.0587
